test: Concentration in blood of guinea pigs; format: in vivo; conditions: guinea pig, oral, 30 mg/kg in 1% methyl cellulose, plasma, HPLC, read-out: Cmax, maximum concentration in blood
quantity name: Cmax (ng/mL)

CCCn1c(=O)c2ccc(N)nc2n(-c2cc(OC)cc(OC)c2)c1=O	13700
CCCCn1c(=O)c2ccc(N)nc2n(-c2cc(OC)cc(OC)c2)c1=O	1600
COc1cc(OC)cc(-n2c(=O)n(CC(C)C)c(=O)c3ccc(N)nc32)c1	10100
CCn1c(=O)c2ccc(N)nc2n(-c2cc(OC)cc(OC)c2)c1=O	30000

====

assay: Concentration in blood of guinea pigs; type: in vivo; settings: guinea pig, oral, 30 mg/kg in 1% methyl cellulose, plasma, HPLC, read-out: T1/2, half life in blood (converted)
half-life listing for selected molecules.
quantity name: half-life (h)

CCCn1c(=O)c2ccc(N)nc2n(-c2cc(OC)cc(OC)c2)c1=O [Compound 6]	28.4
CCCCn1c(=O)c2ccc(N)nc2n(-c2cc(OC)cc(OC)c2)c1=O [Compound 7]	131
COc1cc(OC)cc(-n2c(=O)n(CC(C)C)c(=O)c3ccc(N)nc32)c1 [Compound 15]	9.8
CCn1c(=O)c2ccc(N)nc2n(-c2cc(OC)cc(OC)c2)c1=O [Compound 5]	12.1

From: patent US6242452A
